Target: Cannabinoid receptor 1 (Rattus norvegicus)
Sequence (P20272 whole entry): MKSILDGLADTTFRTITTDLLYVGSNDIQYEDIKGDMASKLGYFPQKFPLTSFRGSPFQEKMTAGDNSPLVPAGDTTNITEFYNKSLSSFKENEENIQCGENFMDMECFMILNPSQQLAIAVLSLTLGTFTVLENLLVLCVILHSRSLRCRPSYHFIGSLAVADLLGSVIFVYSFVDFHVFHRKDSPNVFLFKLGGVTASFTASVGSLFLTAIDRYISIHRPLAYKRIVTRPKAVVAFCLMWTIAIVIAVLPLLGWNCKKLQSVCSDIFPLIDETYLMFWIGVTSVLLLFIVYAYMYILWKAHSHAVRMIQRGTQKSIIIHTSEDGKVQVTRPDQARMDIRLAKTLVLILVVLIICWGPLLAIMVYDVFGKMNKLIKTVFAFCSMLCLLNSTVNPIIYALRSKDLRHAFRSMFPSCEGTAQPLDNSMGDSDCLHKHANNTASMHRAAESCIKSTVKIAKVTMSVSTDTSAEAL
pIC50: −log10 of the molar value.
Everything with pIC50 lower than 8 is Criterion not met; everything else, including exactly 8, is Criterion met.

>>> label_value("O=C(NC1(c2noc(C(F)(F)F)n2)CC1)c1nn(-c2ccc(Cl)cc2Cl)c(-c2ccc(Cl)cc2)c1CO")
"Criterion met"
>>> label_value("CCc1c(C(=O)NC(C)(C)c2nnnn2C)nn(-c2ccc(Cl)cc2Cl)c1-c1ccc(OCC(=O)O)cc1")
"Criterion not met"
>>> label_value("Cc1c(C(=O)NC(C)(C)c2nc(C(F)(F)F)cs2)nn(-c2ccc(Cl)cc2Cl)c1-c1ccc(Cl)cc1")
"Criterion met"
>>> label_value("Cc1c(C(=O)NC2(c3noc(C(F)(F)F)n3)CCC2)nn(-c2ccc(Cl)cc2Cl)c1-c1ccc(Cl)cc1")
"Criterion met"
>>> label_value("Cc1c(C(=O)NC2(c3noc(C(F)(F)F)n3)CC2)nn(-c2ccc(Cl)cc2Cl)c1-c1ccc(Cl)cc1")
"Criterion met"

Exercise: Threshold query (pIC50 >= 8) on CCc1c(C(=O)NC(C)(C)c2nnnn2C)nn(-c2ccc(Cl)cc2Cl)c1-c1ccc(Br)cc1
Solution: Criterion met

Exercise: Threshold query (pIC50 >= 8) on CCOC(=O)c1sc(C(C)(C)NC(=O)c2nn(-c3ccc(Cl)cc3Cl)c(-c3ccc(Cl)cc3)c2C)nc1C
Solution: Criterion not met

Exercise: Threshold query (pIC50 >= 8) on Cc1c(C(=O)NC(C)(C)c2cn3cc(Cl)ccc3n2)nn(-c2ccc(Cl)cc2Cl)c1-c1ccc(Cl)cc1
Solution: Criterion not met

Exercise: Threshold query (pIC50 >= 8) on Cc1c(C(=O)NC(C)(C)c2cn3cccnc3n2)nn(-c2ccc(Cl)cc2Cl)c1-c1ccc(Cl)cc1
Solution: Criterion not met

Exercise: Threshold query (pIC50 >= 8) on C[C@H](NC(=O)C(C)(C)Oc1ccc(C(F)(F)F)cn1)[C@@H](Cc1ccc(Cl)cc1)c1cccc(C#N)c1 [TARANABANT]
Solution: Criterion met

Exercise: Threshold query (pIC50 >= 8) on CCc1c(C(=O)NC(C)(C)c2nnnn2C)nc(-c2ccc(Cl)cc2Cl)n1-c1ccc(Cl)cc1
Solution: Criterion not met

Exercise: Threshold query (pIC50 >= 8) on CC(C)(NC(=O)c1nn(-c2ccc(Cl)cc2Cl)c(-c2ccc(Cl)cc2)c1CO)c1noc(C(F)(F)F)n1
Solution: Criterion met

Exercise: Threshold query (pIC50 >= 8) on CCc1c(C(=O)NC(C)(C)c2noc(C(F)(F)F)n2)nc(-c2ccc(Cl)cc2Cl)n1-c1ccc(Cl)cc1
Solution: Criterion met

Exercise: Threshold query (pIC50 >= 8) on COCc1c(C(=O)NC(C)(C)c2noc(C(F)(F)F)n2)nn(-c2ccc(Cl)cc2Cl)c1-c1ccc(Cl)cc1
Solution: Criterion met

Exercise: Threshold query (pIC50 >= 8) on CCc1c(C(=O)NC(C)(C)c2nnnn2C)nn(-c2ccc(Cl)cc2Cl)c1-c1ccc(Cl)cc1
Solution: Criterion met
